- target.under.test: human chemokine receptor CXCR7 (Homo sapiens (Human))
- procedure.summary: Tango CXCR7-bla U2OS beta-arrestin recruitment assay (beta-lactamase reporter, FRET), antagonism of CXCL12/SDF1-α
- Format: cell-based
- assay.setup: antagonistic effect on CXCR7; Tango CXCR7-bla U2OS cells, CXCL12/SDF1-α at its EC80

[
  {
    "compound": "O=C(N[C@H]1CCN(CC2CC2(F)F)C[C@@H]1C(=O)NC1(c2ncccn2)CC1)c1cc(-c2ccc(F)cc2F)on1 (some centres unmarked)",
    "target.under.test": "human chemokine receptor CXCR7 (Homo sapiens (Human))",
    "IC50 [nM]": 8
  },
  {
    "compound": "CN(C)C(=O)[C@@H]1CN(C2CCCCC2)CC[C@H]1NC(=O)c1cn(-c2ccc(F)cc2F)nn1 (single isomer, unassigned) [Example 1.095a]",
    "target.under.test": "human chemokine receptor CXCR7 (Homo sapiens (Human))",
    "IC50 [nM]": 129
  },
  {
    "compound": "CN(C)C(=O)[C@]1(C)CN(C2CCCCC2)CC[C@H]1NC(=O)c1cc(-c2ccc(F)cc2F)on1 (racemic)",
    "target.under.test": "human chemokine receptor CXCR7 (Homo sapiens (Human))",
    "IC50 [nM]": 857
  },
  {
    "compound": "COc1ccccc1C(C)NC(=O)[C@H]1CN(CC2CC2)CC[C@@H]1NC(=O)c1cc(-c2ccc(F)cc2F)on1 (some centres unmarked) [Example 4.072]",
    "target.under.test": "human chemokine receptor CXCR7 (Homo sapiens (Human))",
    "IC50 [nM]": 16
  },
  {
    "compound": "C[C@@H]1CC[C@H]1N1CC[C@@H](NC(=O)c2cc(-c3ccc(F)cc3F)on2)[C@H](C(=O)N(C)C)C1 [Example 2.016]",
    "target.under.test": "human chemokine receptor CXCR7 (Homo sapiens (Human))",
    "IC50 [nM]": 80
  }
]

====

# Lookup of reported IC50 keyed by entry
- target.under.test: human chemokine receptor CXCR7 (Homo sapiens (Human))
- procedure.summary: Tango CXCR7-bla U2OS beta-arrestin recruitment assay (beta-lactamase reporter, FRET), antagonism of CXCL12/SDF1-α
- Type: cell-based
- assay.setup: antagonistic effect on CXCR7; Tango CXCR7-bla U2OS cells, CXCL12/SDF1-α at its EC80

[
  {
    "molecule": "C[C@@H](NC(=O)[C@H]1CN(C2CCC2)CC[C@@H]1NC(=O)c1cc(-c2ccc(F)cc2F)on1)c1ncccc1F [Example 4.098a]",
    "uom": "nM",
    "IC50": 12
  },
  {
    "molecule": "CN(C)C(=O)[C@@H]1CN(CC2CC2)CC[C@H]1NC(=O)c1cc(-c2ccc(F)cc2F)no1 (racemic)",
    "uom": "nM",
    "IC50": 276
  },
  {
    "molecule": "O=C(N[C@@H]1CCN(C2CCCCC2)C[C@H]1C(=O)NCc1ccncc1)c1cc(-c2ccc(F)cc2F)on1",
    "uom": "nM",
    "IC50": 223
  },
  {
    "molecule": "COCC(C)(C)NC(=O)[C@@H]1CN(C2CCCCC2)CC[C@H]1NC(=O)c1cc(-c2ccc(F)cc2F)no1 (racemic)",
    "uom": "nM",
    "IC50": 566
  },
  {
    "molecule": "C[C@@H](NC(=O)[C@@H]1CN(C2CCCCC2)CC[C@H]1NC(=O)c1cc(-c2ccc(F)cc2F)on1)C(C)(C)C (relative stereo)",
    "uom": "nM",
    "IC50": 867
  },
  {
    "molecule": "C[C@@H](NC(=O)[C@@H]1CN(C2CCCCC2)CC[C@H]1NC(=O)c1cc(-c2ccc(F)cc2F)on1)C1CCC1 [Example 4.009]",
    "uom": "nM",
    "IC50": 573
  }
]

====

# Lookup of reported pIC50 keyed by entry
- target.under.test: human chemokine receptor CXCR7 (Homo sapiens (Human), UniProt P25106)
- Sequence (P25106 whole entry): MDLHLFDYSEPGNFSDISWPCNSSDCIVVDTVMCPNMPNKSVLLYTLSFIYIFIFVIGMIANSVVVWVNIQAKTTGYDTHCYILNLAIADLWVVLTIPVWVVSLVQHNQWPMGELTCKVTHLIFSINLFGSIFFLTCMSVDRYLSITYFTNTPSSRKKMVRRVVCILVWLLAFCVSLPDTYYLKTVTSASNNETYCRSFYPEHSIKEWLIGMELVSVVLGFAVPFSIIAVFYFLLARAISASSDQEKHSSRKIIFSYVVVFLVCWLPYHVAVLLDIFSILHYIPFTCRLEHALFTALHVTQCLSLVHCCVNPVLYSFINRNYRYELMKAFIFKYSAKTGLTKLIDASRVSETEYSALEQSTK
- procedure.summary: Tango CXCR7-bla U2OS beta-arrestin recruitment assay (beta-lactamase reporter, FRET), antagonism of CXCL12/SDF1-α
- Type: cell-based
- assay.setup: antagonistic effect on CXCR7; Tango CXCR7-bla U2OS cells, CXCL12/SDF1-α at its EC80
pIC50: −log10 of the molar value.

[
  {
    "compound": "C[C@@H](NC(=O)[C@H]1CN(CC2CC2)CC[C@@H]1NC(=O)c1cc(-c2ccc(F)cc2F)on1)c1cccc(Br)c1",
    "pIC50": 8.70
  },
  {
    "compound": "CN(C)C(=O)[C@@H]1CN(C2CCCCC2)CC[C@H]1NC(=O)c1cc(-c2c(F)cccc2F)on1 (racemic)",
    "pIC50": 6.02
  },
  {
    "compound": "CN(C)C(=O)[C@@H]1CN(CC2(C)CC2)CC[C@H]1NC(=O)c1cc(-c2ccc(F)cc2F)on1",
    "pIC50": 7.06
  },
  {
    "compound": "C#CC(C)NC(=O)[C@H]1CN(C2CCCC2)CC[C@@H]1NC(=O)c1cc(-c2ccc(F)cc2F)on1 (stereo partly shown)",
    "pIC50": 6.41
  }
]

====

- target.under.test: human chemokine receptor CXCR7 (Homo sapiens (Human), UniProt P25106)
- procedure.summary: Tango CXCR7-bla U2OS beta-arrestin recruitment assay (beta-lactamase reporter, FRET), antagonism of CXCL12/SDF1-α;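 also: compounds preincubated 15 min before CXCL12 addition, then 22 h at 37 °C, FRET emission ratio read with CCF4-AM substrate after 2 h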
- Assay type: cell-based
- assay.setup: antagonistic effect on CXCR7; Tango CXCR7-bla U2OS cells, CXCL12/SDF1-α at its EC80
Response field label: string, one of TRUE (IC50 strictly below 200 nM) or FALSE.

[
  {
    "molecule": "O=C(N[C@@H]1CCN(C2CCCCC2)C[C@H]1C(=O)NCC1CCCO1)c1cc(-c2ccc(F)cc2F)on1 (relative stereo)",
    "assigned.class": "FALSE"
  },
  {
    "molecule": "C[C@@H]1CCC[C@H]1N1CC[C@@H](NC(=O)c2cc(-c3ccc(F)cc3F)no2)[C@H](C(=O)N(C)C)C1",
    "assigned.class": "TRUE"
  },
  {
    "molecule": "C[C@@H](NC(=O)[C@@H]1CN(CC2CC2)CC[C@H]1NC(=O)c1cc(-c2c(F)cc(F)cc2F)on1)c1ccccn1 (relative stereo)",
    "assigned.class": "TRUE"
  },
  {
    "molecule": "CCOCC(C)NC(=O)[C@@H]1CN(C2CCCCC2)CC[C@H]1NC(=O)c1cc(-c2ccc(F)cc2F)on1 (relative stereo)",
    "assigned.class": "TRUE"
  },
  {
    "molecule": "O=C(N[C@H]1CCN(CC2CC(F)(F)C2)C[C@@H]1C(=O)NC1(c2ncccn2)CC1)c1cc(-c2ccc(F)cc2F)on1",
    "assigned.class": "TRUE"
  },
  {
    "molecule": "CC(C)(C#N)NC(=O)[C@@H]1CN(C2CCCCC2)CC[C@H]1NC(=O)c1cc(-c2ccc(F)cc2F)on1 (racemic) [Example 1.183]",
    "assigned.class": "TRUE"
  },
  {
    "molecule": "CN(C)C(=O)[C@@H]1CN(CC2CCC2)CC[C@H]1NC(=O)c1cc(-c2ccc(F)cc2F)on1",
    "assigned.class": "TRUE"
  },
  {
    "molecule": "C[C@@H](NC(=O)[C@@H]1CN(C2CCCC2)CC[C@H]1NC(=O)c1cc(-c2c(F)cc(F)cc2F)on1)c1ccccn1 (single isomer, unassigned) [Example 1.122a]",
    "assigned.class": "FALSE"
  },
  {
    "molecule": "CN(C)C(=O)[C@@H]1CN(CC(C)(C)C)CC[C@H]1NC(=O)c1cc(-c2ccc(F)cc2F)on1",
    "assigned.class": "FALSE"
  },
  {
    "molecule": "O=C(N[C@@H]1CCN(CC2CC2)C[C@H]1C(=O)NC1(c2ncccn2)CC1)c1cc(-c2ccc(C(F)(F)F)cc2)on1 (single isomer, unassigned) [Example 1.192a]",
    "assigned.class": "FALSE"
  },
  {
    "molecule": "CO[C@@H]1CCC[C@@H](N2CC[C@@H](NC(=O)c3cc(-c4ccc(F)cc4F)on3)[C@H](C(=O)N(C)C)C2)C1",
    "assigned.class": "TRUE"
  },
  {
    "molecule": "COCC(C)(C)NC(=O)[C@H]1CN(C2CCCCC2)CC[C@@H]1NC(=O)c1cc(-c2ccc(F)cc2F)on1",
    "assigned.class": "TRUE"
  },
  {
    "molecule": "CN(C)C(=O)[C@@H]1CN(CC2CC2)CC[C@H]1NC(=O)c1cc(-c2ccc(F)cc2F)on1 [Example 2.029]",
    "assigned.class": "TRUE"
  }
]
